These entries and their values trace back to ChEMBL document CHEMBL1201862.

# Tested on: SF-539
# Experiment: NCI tumour cell line growth inhibition, 48 h
The source made the active and inactive calls. Rule as the data show it: active = GI50 up to about 1.1 µM and inactive = higher.
Mark one answer only. Choices: active, inactive

| Compound | Study target | Cat |
| --- | --- | --- |
| CC1CC=CC(O)C1 (stereo not drawn) | SF-539 | inactive |
| Clc1ccc(CCn2cncn2)c(Cl)c1 | SF-539 | inactive |
| O=C(O)/C=C/c1ccc(Oc2ccccc2C(=O)O)o1 | SF-539 | inactive |
| COc1ccc(C(OCC2OC(n3cc(C)c(=O)[nH]c3=O)CC2n2cc(Cn3cc(Br)c(=O)[nH]c3=O)nn2)(c2ccccc2)c2ccccc2)cc1 (stereo not drawn) | SF-539 | inactive |
| COC(=O)/C=C\n1nc(Br)c(=O)[nH]c1=O | SF-539 | inactive |

Next:
input: For COc1cc(C2C(Cl)C(=O)N2NC(=O)c2ccccc2O)cc(OC)c1OC (stereo not drawn) , which call appears in the assay record?
output: inactive

---

# Test system: UO-31
# Experiment: NCI tumour cell line growth inhibition, 48 h
Calls of active or inactive are those of the source. Rule as the data show it: active = GI50 up to about 1.1 µM and inactive = higher.
Endpoint label: GI50

Field: example entries. Status: answers known.
| Compound | Experimental value |
| --- | --- |
| CC1=N/C(=C\c2c(O)ccc3ccccc23)C(=O)O1 | > 100 µM (inactive) |
| Cc1cn([C@@H]2O[C@H](CO[Si](C)(C)C(C)(C)C)[C@]3(O[C@H]3C(=O)NO)[C@H]2O[Si](C)(C)C(C)(C)C)c(=O)[nH]c1=O | 1.74 µM (inactive) |
| CN(C)C(=O)C(F)(F)C(c1ccccc1Br)C1C(=O)N(C)C(=O)N(C)C1=O (centres undefined) | > 100 µM (inactive) |
| CC(C)=CCNc1ncnc2c1ncn2CCC(=O)O | > 100 µM (inactive) |
| CCOc1cc2oc(C)cc(=O)c2c(OC)c1/C=N/c1ccc(Cn2c(C)nc3ccccc32)cc1 | > 100 µM (inactive) |

Please look at the items below and tell me GI50 for each one, in order.
1. CC(=O)NC1=C(C)C(=O)c2c(nc3n2CCC3OC(=O)CCl)C1=O (centres undefined)
2. CCN(CC)CCOC(c1cc(OC)ccc1OC)c1ccc2n1-c1ccccc1OC2 (centres undefined)
3. Cc1cccc(C)c1NC(=O)C(=O)Cc1nc2ccccc2s1
4. O=S(=O)(O)C1=C2Sc3ccccc3N=C2c2ccccc2C1

output:
18 µM (inactive)
11 µM (inactive)
> 100 µM (inactive)
19.4 µM (inactive)

---

# Tested on: Malme-3M
# Experiment: NCI tumour cell line growth inhibition, 48 h
Active and inactive are the calls of the source. Rule as the data show it: active = GI50 up to about 1.1 µM and inactive = higher.
Entry note: the call must match one of active, inactive

Worked examples, 9 compounds total:
| Compound | Cat |
| --- | --- |
| COc1cc(OC)cc(-c2nc(O)c3ccccc3n2)c1 | inactive |
| O=C(O)C[n+]1cn(NC(=O)Cc2ccccc2)cn1 | inactive |
| CCOC(=O)c1nc2ccc(OC)cc2c2c1Cc1ccccc1-2 | inactive |
| O=CC1=CCC2c3[nH]c4ccccc4c3CCN2C1 (stereo not given) | inactive |
| O=C(/C=C/c1ccccc1)Oc1ccc(C(=O)/C=C/c2ccc(Cl)cc2)cc1 | inactive |
| CC(C)CC(N)C(=O)NC(C(=O)NC(CCCNC(=N)N)C(=O)NC(CS)C(=O)NC1CSCC(C(=O)NC(Cc2ccccc2)C(=O)NC(C(=O)NC(CCCNC(=N)N)C(=O)O)C(C)C)NC(=O)C2CCCN2C(=O)C(CCCCN)NC(=O)C2CCCN2C(=O)C2CCCN2C(=O)C(Cc2ccc(O)cc2)NC(=O)C(CO)NC(=O)C(CCCCN)NC(=O)C(C(C)O)NC(=O)C(Cc2c[nH]c3ccccc23)NC1=O)C(C)C (stereo not given) | inactive |
| Cc1ccc(N/N=C/C2=CC(C)(C)C(C#N)(C#N)C(O)=C2C#N)cc1 | inactive |
| O=c1/c(=C/c2ccc([N+](=O)[O-])o2)sc2n1[C@@H](c1ccc3c(c1)OCO3)C=C(c1cc(F)c(Cl)cc1Cl)N=2 | inactive |
| CC1CC/C(=C\c2ccc(N(C)C)cc2)C(=O)/C1=C/c1ccc(N(C)C)cc1 (stereo not given) | active |

Consider the additional compound presented here.
input: What call does the record list for CCOC(=O)c1cn(C)nc1N/C(C)=C\C(=O)c1ccccc1 ?
output: inactive
